assay: binders of probe aFGF10 on microarray, primary screen, stem cell growth factor project, biochemical, small-molecule microarray, fluorescence 635/667 (AID 1071); conditions: higher = more signal;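 also: score merges 667 nm spot intensity and signal to noise from triplicate slides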
// composite z-score lookup, one value per entry
Recorded metric: composite z-score

[[record]]
compound = "COCCn1c(C(=O)N2CCCC2)cc2c1C[C@H]1CN(C(=O)c3ccccc3)[C@@](Cc3ccccc3)(C(=O)OC)[C@@H]21"
recorded_metric = "composite z-score"
recorded_value = 0.888

[[record]]
compound = "COCCOC(=O)N1C(=O)[C@@]2(c3cc(C#CCC(C(=O)OC)C(=O)OC)ccc31)[C@H](C(N)=O)[C@H]1C(=O)O[C@H](c3ccccc3)[C@H](c3ccccc3)N1[C@@H]2c1ccc(OCCO)cc1"
recorded_metric = "composite z-score"
recorded_value = 0.906

[[record]]
compound = "COC(=O)[C@@]1(Cc2ccc(F)cc2)[C@H]2c3cc(C(=O)N(C)C)n(CCN4CCOCC4)c3C[C@H]2CN1C(=O)c1ccccc1"
recorded_metric = "composite z-score"
recorded_value = 0.58

[[record]]
compound = "COCCOC(=O)N1C(=O)[C@@]2(c3cc(C#CC4=CCCCC4)ccc31)[C@H](c1ccccc1OCCO)N1[C@H](c3ccccc3)[C@H](c3ccccc3)OC(=O)[C@H]1[C@@H]2C(N)=O"
recorded_metric = "composite z-score"
recorded_value = 0.525

[[record]]
compound = "C=CCC(OC(C)=O)[C@@H]1[C@@H](N(Cc2ccc(-c3cccc(C(F)(F)F)c3)o2)C(=O)Cc2ccc(F)cc2)c2cc(OCCCO)ccc2N1C(=O)c1ccc2ccccc2c1 (stereo partly specified)"
recorded_metric = "composite z-score"
recorded_value = -0.428

[[record]]
compound = "CC(C)CNC(=O)[C@@H]1c2ccccc2C(=O)N(CC23CC4CC(CC(C4)C2)C3)[C@H]1c1ccc(CO)cc1"
recorded_metric = "composite z-score"
recorded_value = 0.205

